In this section, each of the variants is paired with its reported log10 kcat.
B1: glmS ribozyme (parent)
chain: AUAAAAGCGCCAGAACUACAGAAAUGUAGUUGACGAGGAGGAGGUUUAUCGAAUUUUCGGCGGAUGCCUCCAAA

Variants of: B1
Experiment: kcat; higher = faster cleavage; RNA array
Conditions: with glucosamine-6-phosphate
This sample holds only a part of the variants without activity.
Reported property: log10 kcat (log10 of the value in s⁻¹)

Sequence chain | log10 kcat
AUAAAAGCGCCAGAACUACAGAAAUGUAGUUGACGAGGAGGAGGUUUAUCGAAGUUUCGGCGGAUGCUUACAAA | -4.17
AUAAAAGCGCUAGAACUACAGAAAUGUAGUUGACGAGGAGGAGGUUUAUCGAAUUAUCGGCGGAUGCCUCCAAA | -2.91
AUAAAAGCGCCAGAACUACAGAAAUGUAGUUGACGAGGAGGAGGUUUAUCGAAUUUUCGGCGGAUGCCUUAAAA | -3.61
AUAAAAGCGCCAGAACUACAGAAAUGUAGUUGACGAGGAGGAGGUUUAUCGAAUCUUCGGCGGAUUCCUCCAAA | -2.94
AUAAAAGCGCCAGAACUACAGAAAUGUAGUUGACGAGGAGGAGGUUUAUCGUGUUUUCGGCGGAUGCCUCCAAA | -3.84
AUAAAAGCGCCAGAACUACAGAAAUGUAGUUGACGAGGAGAAGGUUUAUCGACUUUUCGGCGGAUGCCUCCAAA | -3.67
AUAAAAGCGCCAGAACUACAGAAAUGUAGUUGACGAGGAGUAGGUUAAUCGAAUUUUCGGCGGAUGCCUCCAAA | -3.20
AUAAAAGCGCCAGAACUACAGAAAUGUAGUUGACGAGGAGGAGUUUUAUCGAAUUUUCGGCGGAUGCCUCUAAA | -3.94
AUAAAAGCGCCAGUACUACAGAAAUGUAUUUGACGAGGAGGAGGUUUAUCGAAUUUUCGGCGGAUGCCUCCAAA | -3.36
AUAAAAGCGCCCGAACUACAGAAAUGUAGUUGACGAGGAGGAGGUUUAUCGAAUUUUCGGCGGAUGCCUACAAA | -3.70
